System Name: Glucose-dependent insulinotropic receptor (Homo sapiens)
Method: Agonist activity at human GPR119 expressed in HEK293 cells assessed as increase in intracellular cAMP level after 60 mins by HTRF assay relative to control
Format: functional, cell-based
# maps each entry to its Activity

- Smiles Code: "NC(=O)Cc1ccc(OCC[C@@H]2C[C@@H]2C2CCN(c3ncc(Cl)cn3)CC2)cc1"
  System Name: "Glucose-dependent insulinotropic receptor (Homo sapiens)"
  Activity / %: 85
- Smiles Code: "O=C(Cc1ccc(OCC[C@@H]2C[C@@H]2C2CCN(c3ncc(Cl)cn3)CC2)nc1)N1CCC1"
  System Name: "Glucose-dependent insulinotropic receptor (Homo sapiens)"
  Activity / %: 112
- Smiles Code: "O=C(Cc1ccc(OCC[C@@H]2C[C@@H]2C2CCN(c3ncc(Cl)cn3)CC2)cc1F)N1CCCCC1"
  System Name: "Glucose-dependent insulinotropic receptor (Homo sapiens)"
  Activity / %: 116
- Smiles Code: "COCc1cnc(N2CCC([C@H]3C[C@H]3CCOc3cc(F)c(CC(=O)N4CCC4)c(F)c3)CC2)nc1"
  System Name: "Glucose-dependent insulinotropic receptor (Homo sapiens)"
  Activity / %: 91
- Smiles Code: "O=C(Cc1ccc(OCC[C@@H]2C[C@@H]2C2CCN(c3ncc(Cl)cn3)CC2)c(F)c1)N1CCC1"
  System Name: "Glucose-dependent insulinotropic receptor (Homo sapiens)"
  Activity / %: 106
- Smiles Code: "O=C(Cc1ccc(OCC[C@@H]2C[C@@H]2C2CCN(c3ncc(Cl)cn3)CC2)cc1)N1CCC1"
  System Name: "Glucose-dependent insulinotropic receptor (Homo sapiens)"
  Activity / %: 82
- Smiles Code: "COCc1cnc(N2CCC([C@H]3C[C@H]3CCOc3ccc(CC(=O)N4CCC4)c(F)c3)CC2)nc1"
  System Name: "Glucose-dependent insulinotropic receptor (Homo sapiens)"
  Activity / %: 82
- Smiles Code: "O=C(Cc1ccc(OCC[C@@H]2C[C@@H]2C2CCN(c3ncc(Cl)cn3)CC2)cc1F)N1CCC1"
  System Name: "Glucose-dependent insulinotropic receptor (Homo sapiens)"
  Activity / %: 106
- Smiles Code: "O=C(Cc1ccc(OCC[C@@H]2C[C@@H]2C2CCN(c3ncc(Cl)cn3)CC2)cc1F)N1CC(O)C1"
  System Name: "Glucose-dependent insulinotropic receptor (Homo sapiens)"
  Activity / %: 89
- Smiles Code: "CC(C)c1noc(N2CCC([C@H]3C[C@H]3CCOc3ccc(CC(=O)N4CCC4)c(F)c3)CC2)n1"
  System Name: "Glucose-dependent insulinotropic receptor (Homo sapiens)"
  Activity / %: 78
- Smiles Code: "CC1(OC(=O)N2CCC([C@H]3C[C@H]3CCOc3ccc(CC(=O)N4CCC4)c(F)c3)CC2)CC1"
  System Name: "Glucose-dependent insulinotropic receptor (Homo sapiens)"
  Activity / %: 127
- Smiles Code: "O=C(Cc1ccc(OCC[C@@H]2C[C@@H]2C2CCN(c3ncc(Cl)cn3)CC2)cc1)NC1CC1"
  System Name: "Glucose-dependent insulinotropic receptor (Homo sapiens)"
  Activity / %: 104
- Smiles Code: "CCc1cnc(N2CCC([C@H]3C[C@H]3CCOc3ccc(CC(=O)N4CCC4)c(F)c3)CC2)nc1"
  System Name: "Glucose-dependent insulinotropic receptor (Homo sapiens)"
  Activity / %: 103
